Entry source: patent US20200368361A1

Molecular target: T1, monkey MSR1 extracellular domain expressed with a N-terminal hexahistidine-myc-myc tag (HMM-mfMSR1) (monkey (Macaca fascicularis))
T1 chain: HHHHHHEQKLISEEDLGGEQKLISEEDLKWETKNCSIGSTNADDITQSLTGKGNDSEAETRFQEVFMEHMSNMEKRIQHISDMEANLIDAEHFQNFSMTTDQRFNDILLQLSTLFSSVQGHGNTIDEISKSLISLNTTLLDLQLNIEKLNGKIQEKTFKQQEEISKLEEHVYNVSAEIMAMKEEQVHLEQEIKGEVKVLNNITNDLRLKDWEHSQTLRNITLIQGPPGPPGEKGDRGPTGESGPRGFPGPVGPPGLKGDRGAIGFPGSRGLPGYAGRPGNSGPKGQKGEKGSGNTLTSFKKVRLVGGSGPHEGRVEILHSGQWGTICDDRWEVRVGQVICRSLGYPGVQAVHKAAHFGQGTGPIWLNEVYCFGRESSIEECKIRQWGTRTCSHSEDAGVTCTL
Experiment: SPR Biacore, 25C, mAb captured by anti-human Fc, MSR1 as analyte;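 note: Half-life of complex dissociation derived from kinetic rates, obtained by fitting Biacore 4000 sensorgrams to a 1:1 model including mass transport, run in HBS-ET buffer at pH 7.4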
Listed here: items and their measured t½.
parameter: t½

{"columns": ["binder", "parameter", "test-result"],
 "data": [
  ["H1H21234N-N297Q (antibody, V domains shown, human IgG1 Fc with N297Q point mutation) VH: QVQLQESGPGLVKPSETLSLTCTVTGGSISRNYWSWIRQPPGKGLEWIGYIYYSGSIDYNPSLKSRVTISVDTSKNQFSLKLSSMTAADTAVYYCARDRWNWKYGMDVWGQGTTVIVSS VL: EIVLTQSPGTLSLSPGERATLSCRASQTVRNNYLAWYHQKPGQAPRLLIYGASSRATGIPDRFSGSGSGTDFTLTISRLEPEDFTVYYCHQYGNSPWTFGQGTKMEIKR", "t½", "9.88 h"],
  ["H1H27747P-N297Q (antibody, V domains shown, human IgG1 Fc with N297Q point mutation) VH: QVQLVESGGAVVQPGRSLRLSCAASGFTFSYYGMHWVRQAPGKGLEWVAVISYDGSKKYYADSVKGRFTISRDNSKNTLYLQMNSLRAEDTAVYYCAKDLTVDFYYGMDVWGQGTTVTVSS VL: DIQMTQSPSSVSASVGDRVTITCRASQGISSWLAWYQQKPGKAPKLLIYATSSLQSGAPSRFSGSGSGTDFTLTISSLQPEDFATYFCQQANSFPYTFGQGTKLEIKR", "t½", "0.217 h"],
  ["H1H27731P-N297Q (antibody, V domains shown, human IgG1 Fc with N297Q point mutation) VH: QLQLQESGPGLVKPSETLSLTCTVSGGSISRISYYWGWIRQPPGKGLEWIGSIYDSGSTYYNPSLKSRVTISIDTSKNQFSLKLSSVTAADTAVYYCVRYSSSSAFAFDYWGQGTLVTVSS VL: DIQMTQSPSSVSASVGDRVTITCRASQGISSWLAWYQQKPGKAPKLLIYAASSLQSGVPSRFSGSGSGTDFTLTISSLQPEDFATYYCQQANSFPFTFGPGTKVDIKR", "t½", "4.12 h"]
]}
